experimental system: purified human GAPDH (Homo sapiens, UniProt P04406)
Sequence (P04406 whole entry): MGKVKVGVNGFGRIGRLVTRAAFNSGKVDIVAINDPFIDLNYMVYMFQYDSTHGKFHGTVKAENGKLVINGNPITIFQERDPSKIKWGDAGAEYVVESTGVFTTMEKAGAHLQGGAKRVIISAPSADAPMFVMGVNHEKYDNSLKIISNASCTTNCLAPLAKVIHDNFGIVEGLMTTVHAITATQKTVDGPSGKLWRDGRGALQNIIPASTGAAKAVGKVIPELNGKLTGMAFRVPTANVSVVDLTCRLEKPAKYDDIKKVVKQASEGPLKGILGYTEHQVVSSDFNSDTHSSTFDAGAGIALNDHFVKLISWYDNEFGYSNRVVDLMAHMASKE
protocol notes: GAPDH aggregation inhibitory activity (first screening, turbidity at 405 nm)
Type: biochemical
condition summary: read-out: IC50 (MEAN ± S.E.) for the GAPDH aggregation inhibitory activity in vitro
Residues, ends and D or L forms follow the SMILES beside them.
readout type: IC50 (nM)
Your answer is read as nM, so omit the unit and give the number.

| compound | experimental system | IC50 / nM |
| --- | --- | --- |
| C[C@@H](O)CNC(=O)[C@H](CS)NCCCO [TN-101] | purified human GAPDH (Homo sapiens, UniProt P04406) | 900 |

Now consider the entry below.
C[C@@H](O)[C@H](NC(=O)[C@H](CS)NC(=O)[C@@H](N)CO)C(=O)O [GAI-17, SCT] (H-Ser-Cys-Thr-OH; N-terminus and C-terminus assumed) yielded IC50 of 1190

---

protocol notes: Cytotoxicity: viability of PC12 cells in the presence of peptide (second screening A)
Format: cell-based
condition summary: rat, PC12 cells
Residues, ends and D or L forms follow the SMILES beside them.
readout type: viability at 72 h, 50 µM
Write the figure, then the unit, nothing else.

C[C@@H](O)[C@H](NC(=O)[C@H](CS)NC(=O)[C@@H](N)CO)C(=O)O [GAI-17, SCT] (H-Ser-Cys-Thr-OH; N-terminus and C-terminus assumed) yielded viability at 72 h, 50 µM of 100%

---

experimental system: purified human GAPDH (Homo sapiens, UniProt P04406)
protocol notes: GAPDH aggregation inhibitory activity (first screening, turbidity at 405 nm)
Format: biochemical
No end group written: not given here.
readout type: IC50 (µM)
Your answer is read as µM, so omit the unit and give the number.

SNASCTTNAL [GAI-1, SNASCTTNAL, reference compound] yielded IC50 of 50
